- target: GCGR (Homo sapiens)
- Construct: purchased Promega (in-house HiBiT-GPCR construct library, NanoBRET)
- Sequence (P47871 26-477): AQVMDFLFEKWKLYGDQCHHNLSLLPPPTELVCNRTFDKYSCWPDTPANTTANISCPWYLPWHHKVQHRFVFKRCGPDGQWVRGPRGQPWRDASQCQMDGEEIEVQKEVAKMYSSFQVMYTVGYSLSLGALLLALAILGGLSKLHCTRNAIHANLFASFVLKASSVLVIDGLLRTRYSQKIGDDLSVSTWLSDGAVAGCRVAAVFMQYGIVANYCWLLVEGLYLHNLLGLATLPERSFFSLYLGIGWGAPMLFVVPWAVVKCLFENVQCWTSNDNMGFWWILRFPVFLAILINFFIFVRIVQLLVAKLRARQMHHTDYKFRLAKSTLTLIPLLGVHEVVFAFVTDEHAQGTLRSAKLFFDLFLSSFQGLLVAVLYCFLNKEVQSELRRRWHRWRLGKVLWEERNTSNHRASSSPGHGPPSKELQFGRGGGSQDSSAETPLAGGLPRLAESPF
- procedure-summary: NanoBRET screen HiBiT-GCGR in HEK293
- Format: binding
- condition-set: GCGR; tracer 1μM
Returns 1 (yes) if the recorded NanoBRET Fold Response is greater than or equal to 1, and 0 (no) otherwise.

Recorded results for 3 compounds are shown here.
{"columns": ["compound", "category-label"],
 "data": [
  ["O=C(CCc1ccc2n1[B-](F)(F)[N+]1=C(c3ccc[nH]3)C=CC1=C2)NCc1ccc(C(=O)NCCOCCC(=O)N[C@@H]2CC[C@@]3(O)[C@H]4Cc5ccc(O)c6c5[C@@]3(CCN4CC3CC3)[C@H]2O6)cc1 [Naltrexone-3-NB590]", "0 (no)"],
  ["CC(C)N(CC[C@H](c1ccccc1)c1cc(CCNC(=O)CCOCCOCCOCCOCCNC(=O)CCc2ccc3n2[B-](F)(F)[N+]2=C(c4ccc[nH]4)C=CC2=C3)ccc1O)C(C)C [Tolterodine-2-NB590]", "1 (yes)"],
  ["COc1ccccc1N1CCN(CCCCN2C(=O)c3ccc(CNC(=O)CCOCCNC(=O)c4ccc(CNC(=O)CCc5ccc6n5[B-](F)(F)[N+]5=C(c7ccc[nH]7)C=CC5=C6)cc4)cc3C2=O)CC1 [NAN-190-3-NB590]", "0 (no)"]
]}

I'd appreciate it if you could say whether Cc1cc2c(s1)Nc1ccccc1N=C2N1CCN(CCCNC(=O)CCOCCOCCOCCOCCNC(=O)CCc2ccc3n2[B-](F)(F)[N+]2=C(c4ccc[nH]4)C=CC2=C3)CC1 [Olanzapine-a-2-NB590] has NanoBRET Fold Response at least equal to 1. 0 (no)

Hello, I need to know if N#CN=C(NCCCOc1cccc(CN2CCCCC2)c1)NCCNC(=O)CCOCCOCCOCCOCCNC(=O)CCc1ccc2n1[B-](F)(F)[N+]1=C(c3ccc[nH]3)C=CC1=C2 [Aminopotentidine-2-NB590] has measured NanoBRET Fold Response not below 1. Thanks! 1 (yes)

Reported NanoBRET Fold Response reaches at least 1 for O=C(CCOCCOCCOCCOCCNC(=O)CCc1ccc2n1[B-](F)(F)[N+]1=C(c3ccc[nH]3)C=CC1=C2)NCCCN1CCN(C2=Nc3ccccc3Oc3ccc(Cl)cc32)CC1 [Loxapine-a-2-NB590] ? 1 (yes)

---

Below, each entry is listed alongside its reported NanoBRET Fold Response.
- target: FZD2 (Homo sapiens, UniProt Q14332)
- Construct: purchased Promega (in-house HiBiT-GPCR construct library, NanoBRET)
- Sequence (Q14332 24-565): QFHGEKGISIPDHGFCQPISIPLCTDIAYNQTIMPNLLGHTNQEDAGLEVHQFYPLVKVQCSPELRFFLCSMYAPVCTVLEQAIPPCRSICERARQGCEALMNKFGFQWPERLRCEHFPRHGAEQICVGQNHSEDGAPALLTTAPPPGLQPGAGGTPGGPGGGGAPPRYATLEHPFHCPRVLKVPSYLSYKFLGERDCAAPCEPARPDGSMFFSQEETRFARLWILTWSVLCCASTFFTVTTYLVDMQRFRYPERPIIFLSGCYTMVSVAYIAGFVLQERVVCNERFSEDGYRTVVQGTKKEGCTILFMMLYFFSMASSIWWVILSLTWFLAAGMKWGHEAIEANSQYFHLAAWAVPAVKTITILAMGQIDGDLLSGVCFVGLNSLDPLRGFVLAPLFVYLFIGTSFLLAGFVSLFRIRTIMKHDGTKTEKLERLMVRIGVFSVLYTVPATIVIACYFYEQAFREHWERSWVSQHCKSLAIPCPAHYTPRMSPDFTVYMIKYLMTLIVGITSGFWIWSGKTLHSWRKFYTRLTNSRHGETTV
- procedure-summary: NanoBRET screen HiBiT-FZD2 in HEK293
- Type: binding
- condition-set: FZD2; tracer 1μM
Reply with just the number.

{"columns": ["compound", "experimental-readout", "test-value"],
 "data": [
  ["Cc1nc2n(c(=O)c1CCN1CCC(c3noc4cc(F)ccc34)CC1)CCCC2OC(=O)NCCOCCOCCOCCOCCNC(=O)CCc1ccc2n1[B-](F)(F)[N+]1=C(c3ccc[nH]3)C=CC1=C2 (centres unmarked)", "NanoBRET Fold Response", 1.03],
  ["O=C(CCc1ccc2n1[B-](F)(F)[N+]1=C(c3ccc[nH]3)C=CC1=C2)NCCOCCOCCNC(=O)OCCOCCN1CCN(C2=Nc3ccccc3Sc3ccccc32)CC1", "NanoBRET Fold Response", 0.89],
  ["COc1ccccc1N1CCN(CCCCN2C(=O)c3ccc(CNC(=O)CCOCCOCCOCCOCCNC(=O)CCc4ccc5n4[B-](F)(F)[N+]4=C(c6ccc[nH]6)C=CC4=C5)cc3C2=O)CC1", "NanoBRET Fold Response", 1.02],
  ["O=C(CCc1ccc2n1[B-](F)(F)[N+]1=C(c3ccc[nH]3)C=CC1=C2)NCc1ccc(C(=O)NCCOCCC(=O)N[C@@H]2CC[C@@]3(O)[C@H]4Cc5ccc(O)c6c5[C@@]3(CCN4CC3CC3)[C@H]2O6)cc1 [Naltrexone-3-NB590]", "NanoBRET Fold Response", 0.88],
  ["CCCn1c(=O)c2[nH]c(-c3ccc(OCC(=O)NCCNC(=O)CCOCCNC(=O)c4ccc(CNC(=O)CCc5ccc6n5[B-](F)(F)[N+]5=C(c7ccc[nH]7)C=CC5=C6)cc4)cc3)nc2n(CCC)c1=O", "NanoBRET Fold Response", 1.04]
]}

Output reported NanoBRET Fold Response of the compound `CC(C)N(CC[C@H](c1ccccc1)c1cc(CCNC(=O)CCOCCOCCOCCOCCNC(=O)CCc2ccc3n2[B-](F)(F)[N+]2=C(c4ccc[nH]4)C=CC2=C3)ccc1O)C(C)C` on FZD2 (Homo sapiens, UniProt Q14332). 0.95

Tell me its NanoBRET Fold Response on FZD2 (Homo sapiens, UniProt Q14332): `O=C(CCOCCOCCOCCOCCNC(=O)CCc1ccc2n1[B-](F)(F)[N+]1=C(c3ccc[nH]3)C=CC1=C2)NCCCN1CCN(C2=Nc3ccccc3Oc3ccc(Cl)cc32)CC1` 1.05

Find the measured NanoBRET Fold Response of `N#CN=C(NCCCOc1cccc(CN2CCCCC2)c1)NCCNC(=O)CCOCCOCCOCCOCCNC(=O)CCc1ccc2n1[B-](F)(F)[N+]1=C(c3ccc[nH]3)C=CC1=C2` with FZD2 (Homo sapiens, UniProt Q14332) as test system. 1.06

Give reported NanoBRET Fold Response for `COc1ccccc1N1CCN(CCCCN2C(=O)c3ccc(CNC(=O)CCOCCNC(=O)c4ccc(CNC(=O)CCc5ccc6n5[B-](F)(F)[N+]5=C(c7ccc[nH]7)C=CC5=C6)cc4)cc3C2=O)CC1` (FZD2 (Homo sapiens, UniProt Q14332)) 1.44

Identify measured NanoBRET Fold Response obtained with FZD2 (Homo sapiens, UniProt Q14332) for `CC(C)N(CC[C@H](c1ccccc1)c1cc(CCNC(=O)c2ccc(CNC(=O)CCc3ccc4n3[B-](F)(F)[N+]3=C(c5ccc[nH]5)C=CC3=C4)cc2)ccc1O)C(C)C` . 1.01

Please tell me the measured NanoBRET Fold Response for `Cc1cc2c(s1)Nc1ccccc1N=C2N1CCN(CCCNC(=O)CCOCCOCCOCCOCCNC(=O)CCc2ccc3n2[B-](F)(F)[N+]2=C(c4ccc[nH]4)C=CC2=C3)CC1` ; system: FZD2 (Homo sapiens, UniProt Q14332). 0.90
